All figures here come from ChEMBL document CHEMBL1158807.

- System: Plutella xylostella
- ASSAY_PROTOCOL: Toxicity in Plutella xylostella larvae after 72 hrs
- Format: organism-based
- CONDITION_DESCRIPTION: in vivo
MEASURED_ENDPOINT: LD50

Past entries and their recorded results:
INSERT INTO results (item_smiles, recorded_value) VALUES
  ('COC(=O)[C@H]1OC[C@@]23[C@@H](OC(C)=O)C[C@@H](OC(C)=O)[C@@]4(C(=O)OC)CO[C@@H]([C@@H](O)[C@@](C)([C@]56O[C@@]5(C)[C@H]5C[C@@H]6O[C@@H]6OC=C[C@@]65O)[C@H]12)[C@@H]43', '1.4 µg/g'),
  ('C/C=C(\C)C(=O)O[C@H]1C[C@@H](OC(C)=O)[C@@]2(C(=O)OC)CO[C@H]3[C@@H](O)[C@@](C)([C@]45O[C@@]4(C)[C@H]4C[C@@H]5O[C@@H]5OC=C[C@@]54O)[C@@H]4[C@@H](OC(C)=O)OC[C@@]14[C@@H]32', '5.39 µg/g'),
  ('COC(=O)[C@H]1OC[C@@]23[C@@H](OC(=O)CC(C)C)C[C@@H](OC(C)=O)[C@@]4(C(=O)OC)CO[C@@H]([C@@H](O)[C@@](C)([C@]56O[C@@]5(C)[C@H]5C[C@@H]6O[C@@H]6OC=C[C@@]65O)[C@H]12)[C@@H]43', '1.19 µg/g'),
  ('C/C=C(\C)C(=O)O[C@H]1C[C@@H](OC(C)=O)[C@@]2(C(=O)OC)CO[C@H]3[C@@H](O)[C@@](C)([C@]45O[C@@]4(C)[C@H]4C[C@@H]5O[C@@H]5OC=C[C@@]54O)[C@@H]4[C@@H](O)OC[C@@]14[C@@H]32', '1.38 µg/g'),
  ('C/C=C(\C)C(=O)O[C@H]1C[C@@H](OC(C)=O)[C@@]2(C(=O)OC)CO[C@H]3[C@@H](O)[C@@](C)([C@]45O[C@@]4(C)[C@H]4C[C@@H]5O[C@@H]5OC=C[C@@]54O)[C@@H]4[C@@H](C(=O)OC)OC[C@@]14[C@@H]32', '4.23 µg/g');

# lookup: C/C=C(\C)C(=O)O[C@H]1C[C@@H](OC(C)=O)[C@@]2(C(=O)OC)CO[C@H]3[C@@H](O)[C@@](C)([C@]45O[C@@]4(C)[C@@H]4C[C@H]5O[C@@H]5OC=C[C@@]54O)[C@H]4[C@]1(CO[C@]4(O)C(=O)OC)[C@@H]32 on Plutella xylostella, LD50 = 1.28 µg/g

Considering COC(=O)[C@H]1OC[C@]23[C@@H]1[C@](C)([C@]14O[C@@]1(C)[C@H]1C[C@@H]4O[C@@H]4OC=C[C@@]41O)[C@H](O)[C@@H]1OC[C@](C(=O)OC)([C@H](O)C[C@@H]2O)[C@H]13 , its LD50 with Plutella xylostella was recorded as 2.35 µg/g

Record COC(=O)[C@@]12CO[C@H]3[C@@H](O)[C@@](C)([C@]45O[C@@]4(C)[C@H]4C[C@@H]5O[C@@H]5OC=C[C@@]54O)[C@@H]4[C@@H](O)OC[C@]4([C@@H](OC(=O)CC(C)C)C[C@H]1OC(C)=O)[C@@H]32 has Plutella xylostella LD50 equal to 1.19 µg/g

Item: C/C=C(\C)C(=O)O[C@@H]1C[C@H](O)[C@]23CO[C@H](C(=O)OC)[C@H]2[C@](C)([C@]24O[C@@]2(C)[C@H]2C[C@@H]4O[C@@H]4OC=C[C@@]42O)[C@H](O)[C@@H]2OC[C@@]1(C(=O)OC)[C@H]23 | System: Plutella xylostella | LD50: 1.56 µg/g

----------
- Test system: Plutella xylostella
- ASSAY_PROTOCOL: Toxicity in Plutella xylostella larvae after 24 hrs
- Format: organism-based
- CONDITION_DESCRIPTION: in vivo
MEASURED_ENDPOINT: LD50
// return the numeric value with its unit appended

Use these answered entries as a reference point.
INSERT INTO assay_data (item_smiles, tested_target, measured_endpoint, recorded_value) VALUES
  ('COC(=O)[C@H]1OC[C@]23[C@@H]1[C@](C)([C@]14O[C@@]1(C)[C@H]1C[C@@H]4O[C@@H]4OC=C[C@@]41O)[C@H](O)[C@@H]1OC[C@](C(=O)OC)([C@H](O)C[C@@H]2O)[C@H]13', 'Plutella xylostella', 'LD50', '4.88 µg/g'),
  ('COC(=O)[C@H]1OC[C@@]23[C@@H](OC(C)=O)C[C@@H](OC(C)=O)[C@@]4(C(=O)OC)CO[C@@H]([C@@H](O)[C@@](C)([C@]56O[C@@]5(C)[C@H]5C[C@@H]6O[C@@H]6OC=C[C@@]65O)[C@H]12)[C@@H]43', 'Plutella xylostella', 'LD50', '5.95 µg/g'),
  ('C/C=C(\C)C(=O)O[C@H]1C[C@@H](OC(C)=O)[C@@]2(C(=O)OC)CO[C@H]3[C@@H](O)[C@@](C)([C@]45O[C@@]4(C)[C@H]4C[C@@H]5O[C@@H]5OC=C[C@@]54O)[C@@H]4[C@@H](C(=O)OC)OC[C@@]14[C@@H]32', 'Plutella xylostella', 'LD50', '8.46 µg/g');

Shift focus to the following entry.
// recorded LD50 for COC(=O)[C@@]12CO[C@H]3[C@@H](O)[C@@](C)([C@]45O[C@@]4(C)[C@H]4C[C@@H]5O[C@@H]5OC=C[C@@]54O)[C@@H]4[C@@H](O)OC[C@]4([C@@H](OC(=O)CC(C)C)C[C@H]1OC(C)=O)[C@@H]32 : 2.19 µg/g

----------
- System: Plutella xylostella
- ASSAY_PROTOCOL: Toxicity in Plutella xylostella larvae after 96 hrs
- Assay type: organism-based
- CONDITION_DESCRIPTION: in vivo
MEASURED_ENDPOINT: LD50
Numeric answer plus unit only.

Input C/C=C(\C)C(=O)O[C@H]1C[C@@H](OC(C)=O)[C@@]2(C(=O)OC)CO[C@H]3[C@@H](O)[C@@](C)([C@]45O[C@@]4(C)[C@H]4C[C@@H]5O[C@@H]5OC=C[C@@]54O)[C@@H]4[C@@H](O)OC[C@@]14[C@@H]32 . Output LD50: 0.75 µg/g

Sure, the documented LD50 for COC(=O)[C@H]1OC[C@@]23[C@@H](OC(=O)CC(C)C)C[C@@H](OC(C)=O)[C@@]4(C(=O)OC)CO[C@@H]([C@@H](O)[C@@](C)([C@]56O[C@@]5(C)[C@H]5C[C@@H]6O[C@@H]6OC=C[C@@]65O)[C@H]12)[C@@H]43 is 0.79 µg/g

// sample COC(=O)[C@H]1OC[C@]23[C@@H]1[C@](C)([C@]14O[C@@]1(C)[C@H]1C[C@@H]4O[C@@H]4OC=C[C@@]41O)[C@H](O)[C@@H]1OC[C@](C(=O)OC)([C@H](O)C[C@@H]2O)[C@H]13 , its LD50 was 1.78 µg/g

LD50 measured on C/C=C(\C)C(=O)O[C@@H]1C[C@H](O)[C@]23CO[C@H](C(=O)OC)[C@H]2[C@](C)([C@]24O[C@@]2(C)[C@H]2C[C@@H]4O[C@@H]4OC=C[C@@]42O)[C@H](O)[C@@H]2OC[C@@]1(C(=O)OC)[C@H]23 = 1.06 µg/g

Record summary for COC(=O)[C@H]1OC[C@@]23[C@@H](OC(C)=O)C[C@@H](OC(C)=O)[C@@]4(C(=O)OC)CO[C@@H]([C@@H](O)[C@@](C)([C@]56O[C@@]5(C)[C@H]5C[C@@H]6O[C@@H]6OC=C[C@@]65O)[C@H]12)[C@@H]43 : reported LD50 = 1.1 µg/g

Summary for this compound, C/C=C(\C)C(=O)O[C@H]1C[C@@H](OC(C)=O)[C@@]2(C(=O)OC)CO[C@H]3[C@@H](O)[C@@](C)([C@]45O[C@@]4(C)[C@H]4C[C@@H]5O[C@@H]5OC=C[C@@]54O)[C@@H]4[C@@H](C(=O)OC)OC[C@@]14[C@@H]32 : LD50 is 1.3 µg/g

The recorded LD50 for C/C=C(\C)C(=O)O[C@H]1C[C@@H](OC(C)=O)[C@@]2(C(=O)OC)CO[C@H]3[C@@H](O)[C@@](C)([C@]45O[C@@]4(C)[C@H]4C[C@@H]5O[C@@H]5OC=C[C@@]54O)[C@@H]4[C@@H](OC(C)=O)OC[C@@]14[C@@H]32 is 1.92 µg/g

LD50 in this record for C/C=C(\C)C(=O)O[C@H]1C[C@@H](OC(C)=O)[C@@]2(C(=O)OC)CO[C@H]3[C@@H](O)[C@@](C)([C@]45O[C@@]4(C)[C@@H]4C[C@H]5O[C@@H]5OC=C[C@@]54O)[C@H]4[C@]1(CO[C@]4(O)C(=O)OC)[C@@H]32 : 0.87 µg/g

// field: LD50; key: COC(=O)[C@@]12CO[C@H]3[C@@H](O)[C@@](C)([C@]45O[C@@]4(C)[C@H]4C[C@@H]5O[C@@H]5OC=C[C@@]54O)[C@@H]4[C@@H](O)OC[C@]4([C@@H](OC(=O)CC(C)C)C[C@H]1OC(C)=O)[C@@H]32 ; value = 0.79 µg/g
